Assay: Unbound plasma concentration of CE-178253
Assay type: in vivo, rat
Conditions: Sprague-Dawley, rat, plasma, oral; 10 mg/kg p.o.; fast-induced refeeding study; read-out: Unbound Plasma Concentration (± S-D)
Readout Label: concentration at […] (nM)
Numeric only. Scale: nM

concentration at […] reading for CCNC1(C(N)=O)CN(c2nc(C)nc3c(-c4ccc(Cl)cc4)c(-c4ccccc4Cl)nn23)C1 : 15.6

----------
Test: Rat oral PK studies
Assay type: in vivo
Settings: Sprague Dawley, rat, in vivo; oral; data not shown
Readout Label: Tmax (h)
Form entry: value (h) — number only.

Sample CCNC1(C(N)=O)CN(c2nc(C)nc3c(-c4ccc(Cl)cc4)c(-c4ccccc4Cl)nn23)C1 [CE-178253] ; Tmax observed: 1

----------
Experiment: Plasma to brain concentration ratios (brain impairment)
Format: in vivo
Settings: Sprague-Dawley, rat, brain and plasma (unbound and total), oral; mean ± SD over 0.3, 1, 3, 10 mg/kg p.o., n = 3 per dose; read-out: Ratios of unbound plasma and total plasma to unbound brain and total brain concentrations
Readout Label: Plasma-to-brain concentration ratio at […]
Just the number, please.

Looking up CCNC1(C(N)=O)CN(c2nc(C)nc3c(-c4ccc(Cl)cc4)c(-c4ccccc4Cl)nn23)C1 , I found its Plasma-to-brain concentration ratio at […] recorded as 2.9

----------
Experiment: Unbound plasma concentration of CE-178253
Assay type: in vivo, rat
Conditions: Sprague-Dawley, rat, plasma, oral; 0.3 mg/kg p.o.; fast-induced refeeding study; read-out: Unbound Plasma Concentration (± S-D)
Readout Label: concentration at […]

The reported value for CCNC1(C(N)=O)CN(c2nc(C)nc3c(-c4ccc(Cl)cc4)c(-c4ccccc4Cl)nn23)C1 in terms of concentration at […] is 0.17 nM

----------
Molecular target: human CB1 in CHO cells (Homo sapiens, UniProt P21554)
Assay: GTPγ[35S] functional assay, antagonism of CP-55940 stimulation, Schild analysis
Conditions: inhibition of CP-55940-stimulated GTPγ[35S] binding; read-out: Antagonist Ki, GTPγ[35S] functional assay
Readout Label: Ki (nM)
# value in nM; strip the unit string

According to the records, this compound CCNC1(C(N)=O)CN(c2nc(C)nc3c(-c4ccc(Cl)cc4)c(-c4ccccc4Cl)nn23)C1 displays Ki of 0.07

----------
Experiment: Unbound plasma concentration of CE-178253
Type: in vivo, rat
Details: Sprague-Dawley, rat, plasma, oral; 1 mg/kg p.o.; fast-induced refeeding study; read-out: Unbound Plasma Concentration (± S-D)
Readout Label: concentration at […] (nM)
State the answer as a number, implicitly in nM.

Briefly, concentration at […] measured for CCNC1(C(N)=O)CN(c2nc(C)nc3c(-c4ccc(Cl)cc4)c(-c4ccccc4Cl)nn23)C1 [CE-178253] : 1

----------
Biological target: human CB1 receptor (Homo sapiens, UniProt P21554)
Sequence (P21554 whole entry): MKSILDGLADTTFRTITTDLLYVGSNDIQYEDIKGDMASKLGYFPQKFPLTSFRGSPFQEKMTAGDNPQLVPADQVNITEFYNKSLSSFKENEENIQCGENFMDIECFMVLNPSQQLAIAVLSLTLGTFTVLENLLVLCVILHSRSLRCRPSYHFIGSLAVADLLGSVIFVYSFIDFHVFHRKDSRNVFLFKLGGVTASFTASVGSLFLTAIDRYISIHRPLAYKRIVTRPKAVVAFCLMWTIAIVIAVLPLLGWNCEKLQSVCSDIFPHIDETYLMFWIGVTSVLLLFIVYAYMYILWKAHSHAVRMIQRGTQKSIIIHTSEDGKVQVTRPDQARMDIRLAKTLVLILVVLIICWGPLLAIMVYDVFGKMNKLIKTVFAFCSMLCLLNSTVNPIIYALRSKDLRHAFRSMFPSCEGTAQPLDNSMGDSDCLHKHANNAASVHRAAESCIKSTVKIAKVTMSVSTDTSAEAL
Readout Label: pKi
The scale used: pKi is minus the common logarithm of the concentration in molar units.

get_value(item= CCNC1(C(N)=O)CN(c2nc(C)nc3c(-c4ccc(Cl)cc4)c(-c4ccccc4Cl)nn23)C1 , readout=pKi) returns 9.48
